Entries and their Decomposition efficiency: ratio of each glycoside/aglycon within its isoflavone family
System: Crude diglycosidase
Experiment: Examination of substrate concentration in the conversion into isoflavone aglycons by diglycosidase using soybean materials;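 further: percent of the isoflavone family total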
Format: biochemical, Penicillium multicolor IAM7153
Conditions: roasted soy flour, substrate concentration 5%, heat treatment of enzyme no, reaction time 0 h
Supply the numeric figure in %, leaving out any unit text.

O=c1c(-c2ccc(O)cc2)coc2cc(O[C@@H]3O[C@H](CO)[C@@H](O)[C@H](O)[C@H]3O)ccc12	46.1

Dear colleague, I am looking for the recorded Decomposition efficiency: ratio of each glycoside/aglycon within its isoflavone family of the following compound: `COc1cc2c(=O)c(-c3ccc(O)cc3)coc2cc1O`
11.4

Dear colleague, I am looking for the recorded Decomposition efficiency: ratio of each glycoside/aglycon within its isoflavone family of the following compound: `CC(=O)OC[C@H]1O[C@@H](Oc2ccc3c(=O)c(-c4ccc(O)cc4)coc3c2)[C@H](O)[C@@H](O)[C@@H]1O`
46.1

###

Test system: Diglycosidase derived from A. fumigatus
Assay: Reactivity toward various isoflavone glycosides (HPLC)
Assay type: biochemical, Aspergillus fumigatus
Set-up: unit not given here
Conditions: Reaction time 6 h; 55 °C, pH 4.0
Experimental: Diglycosidase was diluted with an acetate buffer of pH 4.0 to prepare a 0.75 AU/mL enzyme solution. […] The reaction was carried out at 55° C. and isolation of an aglycon isoflavone from an isoflavone glycoside in the reaction mixture was detected by HLPC at 0, 1, 3, and 6 hours of the reaction. […]
Entries and their glucoside
Give the value as a plain number.

Completed entries (count: 2):
CC(=O)OC[C@H]1O[C@@H](Oc2ccc3c(=O)c(-c4ccc(O)cc4)coc3c2)[C@H](O)[C@@H](O)[C@@H]1O [acetyldaidzin, 6″-O-acetyldaidzin]	33.5
O=C(O)CC(=O)OC[C@H]1O[C@@H](Oc2ccc3c(=O)c(-c4ccc(O)cc4)coc3c2)[C@H](O)[C@@H](O)[C@@H]1O [malonyldaidzin, 6″-O-malonyldaidzin]	67.7

Lab note: next compound to report on.
Dear colleague, I am looking for the recorded glucoside of the following compound: O=c1c(-c2ccc(O)cc2)coc2cc(O[C@@H]3O[C@H](CO)[C@@H](O)[C@H](O)[C@H]3O)ccc12 [daidzin]
75.2

###

Tested on: Crude diglycosidase
Assay: Examination of pH in the conversion into isoflavone aglycons by diglycosidase using soybean materials
Assay type: biochemical, Penicillium multicolor IAM7153
Settings: pH6.5, heat treatment of enzyme no, reaction time 3 h, 55° C.
Entries and their Decomposition efficiency of daidzin family in roasted soy flour
Give the value as a plain number.

O=c1c(-c2ccc(O)cc2)coc2cc(O)ccc12 [daidzein]	60.8

Lab note: next molecule to report on.
Dear colleague, I am looking for the recorded Decomposition efficiency of daidzin family in roasted soy flour of the following molecule: CC(=O)OC[C@H]1O[C@@H](Oc2ccc3c(=O)c(-c4ccc(O)cc4)coc3c2)[C@H](O)[C@@H](O)[C@@H]1O [acetyldaidzin, 6″-O-acetyldaidzin]
39.2

###

System: Crude diglycosidase
Test: Examination of substrate concentration in the conversion into isoflavone aglycons by diglycosidase using soybean materials;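 further: percent of the isoflavone family total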
Assay type: biochemical, Penicillium multicolor IAM7153
Conditions: roasted soy flour, substrate concentration 5%, heat treatment of enzyme yes, reaction time 6 h
Entries and their Decomposition efficiency: ratio of each glycoside/aglycon within its isoflavone family
Supply the numeric figure in %, leaving out any unit text.

COc1cc2c(=O)c(-c3ccc(O)cc3)coc2cc1O[C@@H]1O[C@H](COC(C)=O)[C@@H](O)[C@H](O)[C@H]1O	33.8
CC(=O)OC[C@H]1O[C@@H](Oc2ccc3c(=O)c(-c4ccc(O)cc4)coc3c2)[C@H](O)[C@@H](O)[C@@H]1O	46.1
O=c1c(-c2ccc(O)cc2)coc2cc(O[C@@H]3O[C@H](CO)[C@@H](O)[C@H](O)[C@H]3O)ccc12	46.1
O=c1c(-c2ccc(O)cc2)coc2cc(O[C@@H]3O[C@H](CO)[C@@H](O)[C@H](O)[C@H]3O)cc(O)c12	47.8

Lab note: next molecule to report on.
Dear colleague, I am looking for the recorded Decomposition efficiency: ratio of each glycoside/aglycon within its isoflavone family of the following molecule: `COc1cc2c(=O)c(-c3ccc(O)cc3)coc2cc1O`
11.4

FYI, the data here is from patent US7118895B2.
